target: T1, htau40 (Homo sapiens, UniProt P10636); assay: Biacore X100 SPR kinetics of anti-tau mAbs on immobilised htau40; format: binding; conditions: Table 27; mAb format, immobilised htau40
T1 construct: Full length tau (hT40)
T1 sequence (P10636 1-441 isoform P10636-8): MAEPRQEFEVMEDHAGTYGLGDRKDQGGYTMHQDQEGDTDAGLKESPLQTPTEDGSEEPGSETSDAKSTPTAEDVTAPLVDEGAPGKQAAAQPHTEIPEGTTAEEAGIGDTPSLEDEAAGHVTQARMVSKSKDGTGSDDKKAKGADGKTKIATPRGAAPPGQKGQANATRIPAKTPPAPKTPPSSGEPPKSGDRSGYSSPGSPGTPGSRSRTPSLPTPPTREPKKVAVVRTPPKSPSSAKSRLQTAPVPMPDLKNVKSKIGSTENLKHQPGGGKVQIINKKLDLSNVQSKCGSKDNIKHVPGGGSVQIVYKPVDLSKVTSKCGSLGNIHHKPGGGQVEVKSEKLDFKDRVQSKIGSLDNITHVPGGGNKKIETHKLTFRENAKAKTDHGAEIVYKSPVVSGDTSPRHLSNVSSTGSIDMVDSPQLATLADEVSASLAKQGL
assay.endpoint: ka (M⁻¹ s⁻¹)

molecule	units.label	reported.measurement
CA4: anti-tau core clone, Table 10; SEQ ID NO: 368 (protein, CA4 amino acid sequence) scFv: QVQLQESGPSLVKPSQTLSLTCTVSGFSLTSYSVYWVRQAPGQALEWISIMYASGRVDYNPALKSRLSITRDTSKSQFSLSLSSVTTEDTAVYYCTRGIENWGPGLLVTVSSEGKSSGASGESKVDDDIQVTQSPSSLSASLTERVSITCRTSQSVNNYLSWYQQKPGQAPKLLIYYATRLYTDVPSRFSGSGSGTDYTLTITSLEADDTATYYCLQYDSTPLAFGGGTNVEIK	M⁻¹ s⁻¹	1.02e+06
